// values below are reported ID50
System: Moloney murine leukemia virus
Assay: Inhibition of Moloney murine leukemia virus reverse transcriptase using (riboadenylic acid)n(deoxythymidylic acid)12-18 as template primer by liquid scintillation counting
outcome_measure: ID50 (µM)

>>> observed_value("C[C@@H]1O[C@@H](OC[C@H]2O[C@@H](Oc3c(-c4ccc(O)c(O)c4)oc4cc(O)cc(O)c4c3=O)[C@H](O)[C@@H](O)[C@@H]2O)[C@H](O)[C@H](O)[C@H]1O")
7.27
>>> observed_value("Oc1cc(O)c2c(c1)O[C@H](c1ccc(O)c(O)c1)[C@H](O)C2")
2.58
>>> observed_value("Oc1cc(O)c2c(c1)O[C@H](c1ccc(O)c(O)c1)[C@@H](O)C2")
2.75
>>> observed_value("O=c1c(O)c(-c2cc(O)c(O)c(O)c2)oc2cc(O)cc(O)c12")
0.25
